# System: IGROV1 ovarian
# protocol notes: NCI tumour cell line growth inhibition, 48 h; in the data active = GI50 below about 0.43 µM; inactive = the rest
Could you please pick one outcome from this set? active, inactive

Consider the following illustrative entries.
>  <compound>
CC(C)CCSC1=CC(=O)c2ccccc2C1=O

>  <assigned class>
inactive

$$$$
>  <compound>
O=C(CCCCCCCn1cc(-c2cccnc2)nn1)Nc1ccccc1-c1ccccc1

>  <assigned class>
active

$$$$
>  <compound>
C/C1=C/C(=O)O[C@@H]2C[C@@H](CC[C@H](C)/C=C\C=C\CC1)O[C@@](O)([C@@H]1CSC(=O)N1CO)C2

>  <assigned class>
active

$$$$

Q) I'd appreciate the recorded outcome for Nc1ccccc1SC(CC(=O)c1ccccc1)c1ccc([N+](=O)[O-])cc1 (stereo unspecified) from this test.
A) inactive

Q) Could you kindly confirm the outcome this assay logged for `CCN(CC)CC.CCOc1ccc(NC(=O)N=C=[N-])cc1.[CH-]1CCCCC1.[CH-]1CCCCC1.[CH-]1CCCCC1.[Cl-].[Sn+4]` ?
A) active

Q) Outcome? `COc1cccc(Cn2c(-c3nonc3N)nc3ccccc32)c1`
A) inactive

----------
# Tested on: CCRF-CEM leukemia
# protocol notes: NCI tumour cell line growth inhibition, 48 h
measurement label: TGI

// for each compound below, give its TGI
1. CC(=O)OCC1OC(n2c(C#N)cc(=O)[nH]c2=O)CC1OC(C)=O (centres undefined)
2. CC1(C)C=Cc2c(cc3oc4ccc5c(c4c(=O)c3c2O)C=CC(C)(C)O5)O1
3. O=c1c(-c2ccccc2)c2oc(c1-c1ccccc1)CS(=O)(=O)CCC2
4. CC(N)C(=O)OCN1C(=O)C2C3C=CC(C2C1=O)C1C2C(=O)N(COC(=O)C(C)N)C(=O)C2C31 (centres undefined)
5. Cc1ccc2c3c(cnc2n1)C(=O)OCCN3C
6. N#CC1(C#N)NC(c2cccnc2)C(C#N)(C#N)NC1c1cccnc1 (centres undefined)
7. CCN(CC)CC.CCOc1ccc(NC(=O)N=C=[N-])cc1.[CH-]1CCCCC1.[CH-]1CCCCC1.[CH-]1CCCCC1.[Cl-].[Sn+4]

A)
> 100 µM
> 100 µM
> 100 µM
67.2 µM
> 100 µM
> 100 µM
0.515 µM

----------
# Test system: NCI-H522 lung
# protocol notes: NCI tumour cell line growth inhibition, 48 h
measurement label: TGI (µM)
Answers are plain numbers, in µM.

Record excerpt, results attached:
>  <chemical smiles>
CNC(=O)c1c(NC(=O)c2ccc(C(F)(F)F)cc2)sc2c1CCC(=O)C2

>  <target of assay>
NCI-H522 lung

>  <units>
µM

>  <TGI>
1.92

$$$$
>  <chemical smiles>
CCOC(=O)C(Cc1c[nH]c2ccc([N+](=O)[O-])cc12)(NC(C)=O)C(=O)OCC

>  <target of assay>
NCI-H522 lung

>  <units>
µM

>  <TGI>
460

$$$$
>  <chemical smiles>
COC(=O)NC1(NC(=O)OC)NC(=O)c2cc(OC)c(OC)cc2N1

>  <target of assay>
NCI-H522 lung

>  <units>
µM

>  <TGI>
80

$$$$

--- query ---
Q) Under NCI-H522 lung: TGI value of `CCN(CC)CC.CCOc1ccc(NC(=O)N=C=[N-])cc1.[CH-]1CCCCC1.[CH-]1CCCCC1.[CH-]1CCCCC1.[Cl-].[Sn+4]` ?
A) 0.0549

----------
# Tested on: COLO 205 colon
# protocol notes: NCI tumour cell line growth inhibition, 48 h
Provide the recorded TGI for the entries that follow.
One number for each entry, in µM.

Take a look at these entries with their results.
>  <compound>
O=C(/C=C/c1ccc(O)c(O)c1)OCc1ccccc1

>  <TGI (µM)>
70.9

$$$$
>  <compound>
Cc1ccc(S(=O)(=O)Oc2ccc([N+](=O)[O-])cc2[N+](=O)[O-])cc1

>  <TGI (µM)>
18.6

$$$$
>  <compound>
NC1OC(COC(=O)c2ccccc2)C(O)C(OC(=O)c2ccccc2)C1OC(=O)c1ccccc1 (stereo not drawn)

>  <TGI (µM)>
50.3

$$$$

In the following, a different compound is considered.
Q) Which TGI is listed for `C=CC(=O)N1C/C(=C\c2ccccc2)C(=O)/C(=C/c2ccccc2)C1` ?
A) 3.87

----------
# Tested on: NCI-H226 lung
# protocol notes: NCI tumour cell line growth inhibition, 48 h
Where a SMILES comes first, the peptide text is derived from it. Bridges are numbered along the chain shown (N, C = ends). [ ]: non-standard residue; d: D form. The star is where a group is joined. Cbz = O=C(OCc1ccccc1)*; Dab = NCC[CH](N)C(=O)O; Bn = c1ccc(C*)cc1
measurement label: TGI

Some solved cases for reference:
>  <compound>
C=CC(CBr)CCC(Br)C(C)(C)Br (stereo not drawn)

>  <TGI>
> 10 µM

$$$$
>  <compound>
C=C[C@]1(O)CCC[C@]2(C)C(=O)CCC12C (stereo partly drawn)

>  <TGI>
> 100 µM

$$$$
>  <compound>
CCCCC(C(=O)N/N=C/c1ccc([N+](=O)[O-])o1)C(=O)N/N=C/c1ccc([N+](=O)[O-])o1

>  <TGI>
5.1 µM

$$$$
>  <compound>
CC(C)(Br)C(Br)CCC(=CCBr)CBr (mixture of isomers)

>  <TGI>
28.3 µM

$$$$
>  <compound>
CC1=C(C#N)C23C(=O)c4ccccc4C(O)=C2C(=O)C=CC3(O)N1 (stereo not drawn)

>  <TGI>
32 µM

$$$$

The following compounds each have a reported value; give each one's TGI.
1. CCc1c2c(nc3cc4c(c(N)c13)OCO4)-c1cc3c(c(=O)n1C2)COC(=O)[C@]3(O)CC
2. N=c1oc2c(Br)cc(Br)cc2cc1C(=O)Nc1ccccn1
3. Nc1nc(Cl)cc(NCCCCCNc2cc(Cl)nc(N)n2)n1
4. Cc1cc(S(=O)(=O)NC(=C(C#N)C#N)[n+]2ccc(N(C)C)cc2)c([S-])cc1Cl

A)
1. 0.202 µM
2. > 100 µM
3. > 100 µM
4. > 100 µM

Working through the 3 compounds below one at a time, give TGI for each.
1. CS/C(C#N)=C(\C#N)SC
2. O=C(Nc1cccc(NC(=O)C(=O)C2CCC3=C(Sc4ccccc4N3)C2=O)n1)C(=O)C1CCC2=C(Sc3ccccc3N2)C1=O (stereo not drawn)
3. CC(C)CC1NC(=O)C(Cc2ccccc2)NC(=O)C(Cc2ccccc2)NC(=O)C(NC(=O)C(Cc2ccc(OCc3ccccc3)cc2)NC(=O)OCc2ccccc2)CCNC1=O (stereo not drawn) (Cbz-Y(Bn)[Dab]FFL; lactam 2-C; configuration not given here)

A)
1. 5.92 µM
2. > 100 µM
3. > 100 µM

Each compound below has a recorded value; state its TGI.
1. COC(=O)C(Cc1cnc[nH]1)NC(=O)CNC(=O)CCCn1c(=O)c2c3ccccc3n(C)c2n2nnc(-c3ccccc3)c12 (stereo not drawn)
2. COc1cc(Br)c(CC2(C#N)c3ccccc3C3C(N2C(=O)c2ccccc2)C3(Cl)Cl)cc1OC (stereo not drawn)
3. COC(=O)C(=O)C(C(=O)C1=NS(=O)(=O)c2cc(S(N)(=O)=O)c(Cl)cc2N1)c1nc2ccc(C(=O)c3ccccc3)cc2[nH]c1=O (stereo not drawn)
4. COc1ccc2c(c1)CCN=C2Cc1ccccc1CCCl
5. N.N.N.N.O=NN1CCCCCC1(P(=O)([O-])[O-])P(=O)([O-])[O-].[Pt+4].[Pt+4]
6. Cc1ccc2nc(N/N=C/c3ccc(C)s3)cc(C)c2c1

A)
["> 100 µM", "> 65.5 µM", "> 100 µM", "83.5 µM", "> 100 µM", "31.7 µM"]

----------
So I've got a bunch of compounds here, and I need their TGI values.
# System: HCT-116 colon
# protocol notes: NCI tumour cell line growth inhibition, 48 h
Answers are plain numbers, in µM.

Past entries and their recorded results:
>  <chemical smiles>
Cc1ccc(-n2c3nc(=O)n(C)c(=O)c-3nc3ccccc32)cc1

>  <measurement label>
TGI

>  <units>
µM

>  <reported result>
61.3

$$$$
>  <chemical smiles>
Cc1cc(N)ccc1N=Nc1ccc(S(=O)(=O)CCOS(=O)(=O)O)cc1

>  <measurement label>
TGI

>  <units>
µM

>  <reported result>
12.6

$$$$
>  <chemical smiles>
Cc1nnc2sc(Cl)nn12

>  <measurement label>
TGI

>  <units>
µM

>  <reported result>
26.2

$$$$

Q) Recall the recorded TGI for `CCCCC(C(=O)N/N=C/c1ccc([N+](=O)[O-])o1)C(=O)N/N=C/c1ccc([N+](=O)[O-])o1` with HCT-116 colon and state it.
A) 2.9

----------
# Test system: SK-MEL-2 melanoma
# protocol notes: NCI tumour cell line growth inhibition, 48 h
What TGI was measured for each of the following?

Would you please look over these solved cases?
>  <chemical smiles>
NC(=O)C1c2ccccc2C=Cc2ccccc21

>  <TGI>
> 100 µM

$$$$
>  <chemical smiles>
CCC(=O)C1(N2CCOCC2)CCN(CCCC(=O)c2ccc(F)cc2)CC1

>  <TGI>
> 100 µM

$$$$
>  <chemical smiles>
Sc1ccc2ccccc2c1CNCc1ccccc1

>  <TGI>
45.5 µM

$$$$

Switching to the query record.
Q) Any idea what TGI was measured for `CN(C)CCCNC(=O)c1ccc2oc3cc4ccccc4c(=O)n3c2c1` ?
A) > 50 µM
